Each recorded value in this set is attributed to patent US6835745B2.

Catalogue of IC50 readings, one per entry.
Biological target: human ERβ (Homo sapiens)
Construct: M214-Q530 of human ERβ; Flag (C)
Sequence (Q92731 214-530): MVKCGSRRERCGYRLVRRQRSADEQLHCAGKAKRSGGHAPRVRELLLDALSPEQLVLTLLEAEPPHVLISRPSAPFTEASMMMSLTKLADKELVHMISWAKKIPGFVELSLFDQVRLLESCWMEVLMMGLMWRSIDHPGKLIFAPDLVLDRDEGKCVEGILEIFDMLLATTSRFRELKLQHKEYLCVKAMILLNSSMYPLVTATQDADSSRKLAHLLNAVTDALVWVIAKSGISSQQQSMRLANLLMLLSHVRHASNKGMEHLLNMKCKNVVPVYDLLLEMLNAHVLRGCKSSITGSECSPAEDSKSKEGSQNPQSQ
Assay: Radioligand binding competition with [3H]-17β-estradiol, ERβ
Details: human ERβ ligand binding domain extract, read-out: ER-β IC50
Form entry: value (nM) — number only.

Which IC50 reading was recorded for the compound Cc1cc(O)ccc1-c1c(C=O)sc(-c2ccc(O)cc2)c1C [Example 3] ?
5.5

Which IC50 reading was recorded for the compound Cc1c(-c2ccc(O)c(F)c2)sc(C=O)c1-c1ccc(O)cc1 [Example 8] ?
5.3

Which IC50 reading was recorded for the compound Cc1cc(O)ccc1-c1sc(C=O)c(-c2ccc(O)cc2)c1C [Example 11] ?
7.8
